Attribution: patent US12325696B2

- assayedTarget: Nav1.5 ion channel (Homo sapiens (Human), UniProt Q14524)
- Sequence (Q14524 whole entry): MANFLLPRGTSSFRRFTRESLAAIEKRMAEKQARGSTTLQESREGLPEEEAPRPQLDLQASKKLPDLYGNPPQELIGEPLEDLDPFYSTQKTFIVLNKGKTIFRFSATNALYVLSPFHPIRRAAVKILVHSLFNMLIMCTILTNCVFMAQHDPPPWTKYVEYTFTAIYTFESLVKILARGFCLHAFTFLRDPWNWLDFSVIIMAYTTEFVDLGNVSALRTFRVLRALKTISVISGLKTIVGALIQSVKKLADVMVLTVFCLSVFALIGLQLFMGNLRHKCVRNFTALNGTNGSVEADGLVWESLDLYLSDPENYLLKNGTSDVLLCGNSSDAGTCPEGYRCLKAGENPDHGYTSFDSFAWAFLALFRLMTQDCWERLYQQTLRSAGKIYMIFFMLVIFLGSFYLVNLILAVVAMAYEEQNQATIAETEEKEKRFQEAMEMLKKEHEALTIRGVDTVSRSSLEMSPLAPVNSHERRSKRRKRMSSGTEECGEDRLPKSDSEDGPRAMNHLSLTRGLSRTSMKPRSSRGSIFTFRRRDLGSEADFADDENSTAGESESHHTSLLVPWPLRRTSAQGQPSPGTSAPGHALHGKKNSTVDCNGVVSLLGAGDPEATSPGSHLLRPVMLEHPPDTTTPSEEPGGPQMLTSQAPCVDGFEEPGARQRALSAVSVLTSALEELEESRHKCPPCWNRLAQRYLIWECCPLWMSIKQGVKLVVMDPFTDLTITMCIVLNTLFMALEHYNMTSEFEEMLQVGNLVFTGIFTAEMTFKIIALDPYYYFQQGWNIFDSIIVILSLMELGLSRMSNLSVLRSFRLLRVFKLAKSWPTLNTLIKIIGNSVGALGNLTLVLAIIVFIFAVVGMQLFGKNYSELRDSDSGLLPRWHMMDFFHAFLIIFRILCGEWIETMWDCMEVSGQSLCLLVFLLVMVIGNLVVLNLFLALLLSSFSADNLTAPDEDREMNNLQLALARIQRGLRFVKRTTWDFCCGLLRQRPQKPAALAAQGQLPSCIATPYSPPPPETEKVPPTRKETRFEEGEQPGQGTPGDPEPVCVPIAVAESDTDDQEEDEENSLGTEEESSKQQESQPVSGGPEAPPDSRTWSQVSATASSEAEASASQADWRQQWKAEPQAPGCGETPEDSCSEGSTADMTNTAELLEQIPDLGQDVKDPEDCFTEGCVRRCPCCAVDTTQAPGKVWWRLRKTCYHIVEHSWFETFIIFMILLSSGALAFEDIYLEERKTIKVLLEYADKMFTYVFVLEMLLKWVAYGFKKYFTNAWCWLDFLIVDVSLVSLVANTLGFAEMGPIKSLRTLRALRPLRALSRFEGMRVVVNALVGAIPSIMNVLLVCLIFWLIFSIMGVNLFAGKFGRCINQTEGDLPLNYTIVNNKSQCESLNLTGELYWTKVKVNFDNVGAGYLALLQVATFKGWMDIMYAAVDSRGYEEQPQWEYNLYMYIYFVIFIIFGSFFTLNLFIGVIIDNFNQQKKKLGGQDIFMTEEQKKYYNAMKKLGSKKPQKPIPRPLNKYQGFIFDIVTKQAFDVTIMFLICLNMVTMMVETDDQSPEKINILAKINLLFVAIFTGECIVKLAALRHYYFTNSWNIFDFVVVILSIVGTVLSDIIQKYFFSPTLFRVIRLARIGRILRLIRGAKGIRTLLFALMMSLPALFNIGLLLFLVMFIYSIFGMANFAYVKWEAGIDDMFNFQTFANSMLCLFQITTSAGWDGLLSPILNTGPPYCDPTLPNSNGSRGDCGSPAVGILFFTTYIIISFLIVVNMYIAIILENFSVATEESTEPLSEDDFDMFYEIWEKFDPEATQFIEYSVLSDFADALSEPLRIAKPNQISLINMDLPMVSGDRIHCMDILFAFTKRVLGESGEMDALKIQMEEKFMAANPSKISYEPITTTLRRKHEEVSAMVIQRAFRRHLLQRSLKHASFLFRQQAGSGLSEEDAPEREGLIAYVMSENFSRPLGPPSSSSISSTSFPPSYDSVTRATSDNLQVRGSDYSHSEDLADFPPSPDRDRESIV
- assayMethodText: Manual patch clamp inhibition of Nav1.5 current in HEK293 cell
- Type: cell-based
- testConditions: whole-cell patch clamp, read-out: IC50 on inhibiting the Nav1.5 channel activity
Would you mind telling me the reported IC50 of each entry?
Lab book: enter the figure in µM, no units written.

Q) Output measured IC50 for this item: O=C(/C=C/CNC1(COc2ccc(/C(=C(/CC(F)(F)F)c3ccccc3)c3ccc4[nH]nc(F)c4c3)cn2)CC1)N1CC(O)C1 [Example 40]
A) 11.5

Q) For O=C(/C=C/CNCCOc1ccc(/C(=C(/CC(F)(F)F)c2ccccc2)c2ccc3[nH]nc(F)c3c2)cn1)N1CCOCC1 [Example 43, reference compound] , write its IC50.
A) 2.7

Q) Please give measured IC50 of the following entry: CN(C)C(=O)/C=C/CNC1(COc2ccc(/C(=C(/CC(F)(F)F)c3ccccc3)c3ccc4[nH]nc(F)c4c3)cn2)CC1 [Example 39]
A) 8.2

Q) Identify measured IC50 corresponding to O=C(/C=C/CNC1(COc2ccc(/C(=C(/CC(F)(F)F)c3ccccc3)c3ccc4[nH]nc(F)c4c3)cn2)CC1)N1CC[C@H](O)C1 [Example 41]
A) 5.3

* * *

I'd be grateful if you could share measured Covalent modification effect on the estrogen receptor ERα wild-type for these entries.
- assayedTarget: estrogen receptor ERα wild-type (Homo sapiens (Human))
- assayMethodText: Covalent modification of ERα wild-type LBD by high-resolution mass spectrometry
- Format: binding
- testConditions: after 24 hours; 2 μM protein, 10 μM compound, 4° C.
Expressed in %, but write only the number.

Q) Note Covalent modification effect on the estrogen receptor ERα wild-type for the compound shown: O=C(/C=C/CNC1(COc2ccc(/C(=C(/CC(F)(F)F)c3ccccc3)c3ccc4[nH]nc(F)c4c3)cn2)CC1)N1CC[C@H](O)C1
A) 93

Q) Supply recorded Covalent modification effect on the estrogen receptor ERα wild-type for O=C(/C=C/CN1CCC[C@@H](Nc2ccc(/C(=C(/CC(F)(F)F)c3ccccc3)c3ccc4[nH]nc(F)c4c3)cn2)C1)N1CCOCC1 here.
A) 94

Q) Specify reported Covalent modification effect on the estrogen receptor ERα wild-type for the compound shown: CN(C)C(=O)/C=C/CN1CCC[C@@H](Oc2ccc(/C(=C(/CC(F)(F)F)c3ccc(C#N)cc3)c3ccc4[nH]nc(F)c4c3)cn2)C1
A) 90

* * *

- assayMethodText: Pharmacokinetics in BALB/C nude mice after intragastric administration
- Format: in vivo
- testConditions: female, mouse, plasma, po, 30 mg/kg, read-out: Plasma concentration Cmax
Kindly supply the reported Cmax values for the records listed here.
State the value, then name its unit.

Q) Read the entry O=C(/C=C/CNC1(COc2ccc(/C(=C(/CC(F)(F)F)c3ccccc3)c3ccc4[nH]nc(F)c4c3)cn2)CC1)N1CC(O)C1 [Example 40] and write its reported Cmax.
A) 3560 ng/mL

Q) Look up and state reported Cmax for O=C(/C=C/CNC1(COc2ccc(/C(=C(/CC(F)(F)F)c3ccccc3)c3ccc4[nH]nc(F)c4c3)cn2)CC1)N1CCOCC1 [Example 1]
A) 4280 ng/mL

Q) Return the recorded Cmax value; entry: O=C(/C=C/CN1CCC[C@@H](Oc2ccc(/C(=C(/CC(F)(F)F)c3ccccc3)c3ccc4[nH]nc(F)c4c3)cn2)C1)N1CCCC1 [Example 15]
A) 4570 ng/mL

Q) Give the reported value of Cmax for this record: CN(C)C(=O)/C=C/CNC1(COc2ccc(/C(=C(/CC(F)(F)F)c3ccccc3)c3ccc4[nH]nc(F)c4c3)cn2)CC1 [Example 39]
A) 6600 ng/mL

Q) Quick one: give measured Cmax for O=C(/C=C/CNC1(COc2ccc(/C(=C(/CC(F)(F)F)c3ccccc3)c3ccc4[nH]nc(F)c4c3)cn2)CC1)N1CC[C@H](O)C1 [Example 41]
A) 2890 ng/mL

Q) For O=C(/C=C/CNC1(COc2ccc(/C(=C(/CC(F)(F)F)c3ccccc3)c3ccc4[nH]nc(F)c4c3)cn2)CC1)N1CCO[C@@H](CO)C1 [Example 42] , write its Cmax.
A) 2570 ng/mL

* * *

- System: MCF7 ERαY537S
- assayMethodText: Inhibition of proliferation of MCF7 cell expressing ERα Y537S mutant
- Type: cell-based
- testConditions: Homo sapiens, 144 hours
Exercise: for every item that follows, state its recorded IC50.
Give the value, in units of nM, as a plain number.

Q) Please report the measured IC50 for O=C(/C=C/CNC1(COc2ccc(/C(=C(/CC(F)(F)F)c3ccccc3)c3ccc4[nH]nc(F)c4c3)cn2)CC1)N1CCOCC1
A) 3

Q) Supply reported IC50 belonging to this molecule: C=CC(=O)N1CCC[C@@H](Oc2ccc(/C(=C(/CC(F)(F)F)c3ccccc3)c3ccc4[nH]nc(F)c4c3)cn2)C1
A) 2

Q) Look up and report measured IC50 for this entry: CN(C)C(=O)/C=C/CN1CCC[C@@H](Nc2ccc(/C(=C(/CC(F)(F)F)c3ccccc3)c3ccc4[nH]nc(F)c4c3)cn2)C1
A) 3

* * *

- assayMethodText: Pharmacokinetics in BALB/C nude mice after intragastric administration
- Type: in vivo
- testConditions: female, mouse, plasma, po, 30 mg/kg, read-out: Residence time MRT
endpointLabel: MRT (h)
Record the value in h, omitting the unit from your answer.

Q) Please report MRT for the following molecule: O=C(/C=C/CNC1(COc2ccc(/C(=C(/CC(F)(F)F)c3ccccc3)c3ccc4[nH]nc(F)c4c3)cn2)CC1)N1CCO[C@@H](CO)C1
A) 1.56

Q) Check the records and state MRT for O=C(/C=C/CNC1(COc2ccc(/C(=C(/CC(F)(F)F)c3ccccc3)c3ccc4[nH]nc(F)c4c3)cn2)CC1)N1CC(O)C1
A) 2.3

Q) Could you please provide reported MRT for CN(C)C(=O)/C=C/CNC1(COc2ccc(/C(=C(/CC(F)(F)F)c3ccccc3)c3ccc4[nH]nc(F)c4c3)cn2)CC1 ? Thanks!
A) 1.57

* * *

- assayedTarget: estrogen receptor ERα wild-type (Homo sapiens (Human), UniProt P03372)
- Sequence (P03372 296-554): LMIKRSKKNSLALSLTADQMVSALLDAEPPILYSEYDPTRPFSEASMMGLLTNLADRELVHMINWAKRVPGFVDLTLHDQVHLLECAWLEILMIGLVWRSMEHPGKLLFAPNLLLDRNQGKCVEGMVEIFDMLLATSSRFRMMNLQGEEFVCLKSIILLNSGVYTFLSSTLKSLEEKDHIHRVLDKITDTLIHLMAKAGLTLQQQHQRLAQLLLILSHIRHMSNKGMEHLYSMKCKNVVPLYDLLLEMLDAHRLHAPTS
- assayMethodText: Covalent modification of ERα wild-type LBD by high-resolution mass spectrometry
- Type: binding
- testConditions: after 24 hours; 2 μM protein, 10 μM compound, 4° C.
endpointLabel: Covalent modification effect on the estrogen receptor ERα wild-type (%)
Return type: number; implicit unit %.

Q) Identify the reported Covalent modification effect on the estrogen receptor ERα wild-type for the following entry. CN(C)C(=O)/C=C/CNC1(COc2ccc(/C(=C(/CC(F)(F)F)c3ccccc3)c3ccc4[nH]nc(F)c4c3)cn2)CC1 [Example 39]
A) 97

Q) Dear colleague, please send me the reported Covalent modification effect on the estrogen receptor ERα wild-type for O=C(/C=C/CNC1(COc2ccc(/C(=C(/CC(F)(F)F)c3ccccc3)c3ccc4[nH]nc(F)c4c3)cn2)CC1)N1CCOCC1 [Example 1] when you can.
A) 97

Q) Report Covalent modification effect on the estrogen receptor ERα wild-type, nothing else, for this compound: CN(C)C(=O)/C=C/CN1CCC[C@@H](Oc2ccc(/C(=C(/CC(F)(F)F)c3ccccc3)c3ccc4[nH]nc(F)c4c3)cn2)C1 [Example 14]
A) 93

Q) Look up Covalent modification effect on the estrogen receptor ERα wild-type of O=C(/C=C/CN1CCC[C@@H](Oc2ccc(/C(=C(/CC(F)(F)F)c3ccccc3)c3ccc4[nH]nc(F)c4c3)cn2)C1)N1CCOCC1 [Example 12] and report it.
A) 85

Q) Determine its reported Covalent modification effect on the estrogen receptor ERα wild-type: CN(C)C(=O)/C=C/CN1CCC[C@@H](Nc2ccc(/C(=C(/CC(F)(F)F)c3ccccc3)c3ccc4[nH]nc(F)c4c3)cn2)C1 [Example 31]
A) 80

Q) Give the measured Covalent modification effect on the estrogen receptor ERα wild-type for O=C(/C=C/CN[C@H]1CCCN(c2ccc(/C(=C(/CC(F)(F)F)c3ccccc3)c3ccc4[nH]nc(F)c4c3)cn2)C1)N1CCOCC1 [Example 38]
A) 95

Q) Given CN(C)C(=O)/C=C/CN1CCC[C@@H](Oc2ccc(/C(=C(/CC(F)(F)F)c3ccc(C(F)(F)F)cc3)c3ccc4[nH]nc(F)c4c3)cn2)C1 [Example 22] , respond with its Covalent modification effect on the estrogen receptor ERα wild-type.
A) 95

Q) For the compound CN(C)C(=O)/C=C/CNC1(COc2ccc(/C(=C(/CC(F)(F)F)c3ccccc3)c3ccc4[nH]nc(F)c4c3)cn2)CCCCC1 [Example 8] , give its reported Covalent modification effect on the estrogen receptor ERα wild-type.
A) 96

* * *

- Test system: MCF7 ERαY537S
- assayMethodText: Inhibition of proliferation of MCF7 cell expressing ERα Y537S mutant
- Assay type: cell-based
- testConditions: Homo sapiens, 144 hours
endpointLabel: IC50 (nM)
// note: answer is a bare numeric in nM

Q) Indicate its recorded IC50; the compound in question is O=C(/C=C/CN1CCC[C@@H](Oc2ccc(/C(=C(/CC(F)(F)F)c3ccccc3)c3ccc4[nH]nc(F)c4c3)cn2)C1)N1CCNCC1 [Example 18]
A) 8

Q) Fill in IC50 for record O=C(/C=C/CN1CCC[C@@H](Oc2ccc(/C(=C(/CC(F)(F)F)c3ccccc3)c3ccc4[nH]nc(F)c4c3)cn2)C1)NC1CCOCC1 [Example 13]
A) 5

Q) Indicate its recorded IC50; the compound in question is O=C(/C=C/CN1CCC[C@@H](Oc2ccc(/C(=C(/CC(F)(F)F)c3ccccc3)c3ccc4[nH]nc(F)c4c3)cn2)C1)NC1CCCC1 [Example 17]
A) 3

Q) Look up IC50 of O=C(/C=C/CNC1(COc2ccc(/C(=C(/CC(F)(F)F)c3ccccc3)c3ccc4[nH]nc(F)c4c3)cn2)CC1)N1CC[C@H](O)C1 [Example 41] and report it.
A) 0.6
